- Test system: HCC-2998 colon
- measurementDescription: NCI tumour cell line growth inhibition, 48 h
Where a SMILES comes first, the peptide text is derived from it. The star is where a group is joined. Boc = CC(C)(C)OC(=O)*

[
  {
    "compound": "CN(CCC#N)c1ccc(/C=C2\\SC(=S)NC2=O)cc1",
    "relationSign": ">",
    "TGI / µM": 100
  },
  {
    "compound": "CC1=C(O)C(=O)[C@@H]2O[C@@H]2C1=O",
    "relationSign": "=",
    "TGI / µM": 35.6
  },
  {
    "compound": "COC(=O)CNC(=O)C(Cc1ccccc1)NC(=O)C(CCSC)NC(=O)C(Cc1ccc(O)cc1)NC(=O)OC(C)(C)C (stereo not given) (Boc-YMFG-OMe; configuration not given here)",
    "relationSign": "=",
    "TGI / µM": 64.1
  },
  {
    "compound": "O=C1OCc2c1cc1ccc(O)c(OC3OC(CO)C(O)C(O)C3O)c1c2-c1ccc2c(c1)OCO2 (stereo not given)",
    "relationSign": ">",
    "TGI / µM": 100
  },
  {
    "compound": "CC1OC(n2cc(F)c(=O)[nH]c2=O)CCC1O (stereo not given)",
    "relationSign": ">",
    "TGI / µM": 100
  },
  {
    "compound": "CC1=C(CCCNS(C)(=O)=O)C2=C(C)C3(CC3)[C@@](C)(O)C(=O)C2=C1",
    "relationSign": "=",
    "TGI / µM": 4.51
  },
  {
    "compound": "N#C/C(=C1C=C/C(=N/O)C(Br)=C/1)c1ccccc1",
    "relationSign": "=",
    "TGI / µM": 20.7
  },
  {
    "compound": "O=C(CI)NC1Oc2ccccc2-c2oc(=O)c(-c3ccccc3)cc21 (stereo not given)",
    "relationSign": "=",
    "TGI / µM": 26.6
  },
  {
    "compound": "O=C(O)CCCCC(CCSCc1ccccc1)SCc1ccccc1 (stereo not given)",
    "relationSign": ">",
    "TGI / µM": 100
  },
  {
    "compound": "O=C1C(Cl)=C(N2CCN(C3=C(Cl)C(=O)c4ccccc4C3=O)CC2)C(=O)c2ccccc21",
    "relationSign": "=",
    "TGI / µM": 8.35
  }
]
